- TARGET OF ASSAY: T1, human IL-12Rβ2 expressed on cells (human, UniProt Q99665 24-862)
- T1 sequence: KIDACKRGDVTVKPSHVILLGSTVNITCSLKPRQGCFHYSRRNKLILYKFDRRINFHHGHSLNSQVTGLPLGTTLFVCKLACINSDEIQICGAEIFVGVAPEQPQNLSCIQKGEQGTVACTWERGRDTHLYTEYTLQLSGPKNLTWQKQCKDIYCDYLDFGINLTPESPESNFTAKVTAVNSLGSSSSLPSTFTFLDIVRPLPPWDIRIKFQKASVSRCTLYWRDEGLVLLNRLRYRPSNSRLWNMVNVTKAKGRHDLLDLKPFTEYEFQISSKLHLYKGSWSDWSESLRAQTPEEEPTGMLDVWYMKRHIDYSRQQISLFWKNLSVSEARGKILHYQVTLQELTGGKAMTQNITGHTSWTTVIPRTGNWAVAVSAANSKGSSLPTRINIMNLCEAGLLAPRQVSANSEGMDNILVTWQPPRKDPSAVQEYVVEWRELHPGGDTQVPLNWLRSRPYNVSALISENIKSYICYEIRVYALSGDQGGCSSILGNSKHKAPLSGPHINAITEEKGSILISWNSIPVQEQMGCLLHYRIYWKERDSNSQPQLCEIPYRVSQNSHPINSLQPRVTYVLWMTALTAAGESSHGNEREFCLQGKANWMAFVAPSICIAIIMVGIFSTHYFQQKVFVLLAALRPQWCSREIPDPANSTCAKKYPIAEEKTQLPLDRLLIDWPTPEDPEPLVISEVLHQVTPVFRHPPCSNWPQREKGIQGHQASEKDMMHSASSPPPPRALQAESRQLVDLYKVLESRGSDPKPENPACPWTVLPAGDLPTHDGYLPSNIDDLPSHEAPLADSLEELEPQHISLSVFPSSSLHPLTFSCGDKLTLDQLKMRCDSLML
- MEASUREMENT PROTOCOL: cell-based or functional assay
Property: % Specific Cell Lysis at 0.00125 ug/mL; scope: individual binders
Entry rule: numbers only, all in %.

[[record]]
binder = "20401-FcDE (Fc fusion) VHH-Fc chain: QVQLQESGGGLVQAGESLTLSCIASGVIKDYAMGWFRQAPGKEREFVAAISWSGVSIYYADSVKGRFTISRDNAKNTVYLQMNSLEPEDTAVYYCAGTEGAYTVAGGSTFGYDMDYWGKGTQVTVSSAPELLGGPDVFLFPPKPKDTLMISRTPEVTCVVVDVSHEDPEVKFNWYVDGVEVHNAKTKPREEQYNSTYRVVSVLTVLHQDWLNGKEYKCKVSNKALPAPEEKTISKAKGQPREPQVYTLPPSRDELTKNQVSLTCLVKGFYPSDIAVEWESNGQPENNYKTTPPVLDSDGSFFLYSKLTVDKSRWQQGNVFSCSVMHEALHNHYTQKSLSLSPGK"
value_observed = 48

[[record]]
binder = "20372-FcDE (Fc fusion) VHH-Fc chain: QVQLQESGGGLVQAGGSLRLSCAASARTESMYAMAWFRQAPGKEREIVAGIIQSGGTTYISDYMKGRFSIDRGNAENTVYLQMDSLKPEDTAVYSCAAKVSSGTPSDIQISQSRWYDHWGQGTQVTVSSAPELLGGPDVFLFPPKPKDTLMISRTPEVTCVVVDVSHEDPEVKFNWYVDGVEVHNAKTKPREEQYNSTYRVVSVLTVLHQDWLNGKEYKCKVSNKALPAPEEKTISKAKGQPREPQVYTLPPSRDELTKNQVSLTCLVKGFYPSDIAVEWESNGQPENNYKTTPPVLDSDGSFFLYSKLTVDKSRWQQGNVFSCSVMHEALHNHYTQKSLSLSPGK"
value_observed = 51.1

[[record]]
binder = "20378-FcDE (Fc fusion) VHH-Fc chain: QVQLQESGGGLVQAGDSLRLSCTASGHTFSRYTTIGWFRQAPGKDREFVAAIRWSGDITDYADAVKGRFTISRDNVKNTVYLQMNSLNPEDTAVYYCARGYSEYGVLSRNRGLYAYWGQGTQVTVSSAPELLGGPDVFLFPPKPKDTLMISRTPEVTCVVVDVSHEDPEVKFNWYVDGVEVHNAKTKPREEQYNSTYRVVSVLTVLHQDWLNGKEYKCKVSNKALPAPEEKTISKAKGQPREPQVYTLPPSRDELTKNQVSLTCLVKGFYPSDIAVEWESNGQPENNYKTTPPVLDSDGSFFLYSKLTVDKSRWQQGNVFSCSVMHEALHNHYTQKSLSLSPGK"
value_observed = 52.4

[[record]]
binder = "20373-FcDE (Fc fusion) VHH-Fc chain: QVQLQESGGGLVQAGGSLVLSCAASGSAALIFLMSWYRQAPGKQRELVAEVSRGGSTTYADSVEGRFTISRDNAKNIVDLQMNSLKPEDTAVYYCKADQNYGDSLRSSWGQGTQVTVSSAPELLGGPDVFLFPPKPKDTLMISRTPEVTCVVVDVSHEDPEVKFNWYVDGVEVHNAKTKPREEQYNSTYRVVSVLTVLHQDWLNGKEYKCKVSNKALPAPEEKTISKAKGQPREPQVYTLPPSRDELTKNQVSLTCLVKGFYPSDIAVEWESNGQPENNYKTTPPVLDSDGSFFLYSKLTVDKSRWQQGNVFSCSVMHEALHNHYTQKSLSLSPGK"
value_observed = 48.9

[[record]]
binder = "20429-FcDE (Fc fusion) VHH-Fc chain: QVQLQESGGGLVQPGGSLRLSCKASGFTFSTYAMSWVRQAPGKGLEWVSAVNSGGLSTDYADSVEGRFTISRDDAKNMLFLQMNSLKPEDTARYYCAKYEDCSDYMCHRDRAGYWGQGTQVTVSSAPELLGGPDVFLFPPKPKDTLMISRTPEVTCVVVDVSHEDPEVKFNWYVDGVEVHNAKTKPREEQYNSTYRVVSVLTVLHQDWLNGKEYKCKVSNKALPAPEEKTISKAKGQPREPQVYTLPPSRDELTKNQVSLTCLVKGFYPSDIAVEWESNGQPENNYKTTPPVLDSDGSFFLYSKLTVDKSRWQQGNVFSCSVMHEALHNHYTQKSLSLSPGK"
value_observed = 59

[[record]]
binder = "anti-IL-12Rβ2-VHH-FcDE clone 20407 (Fc fusion) QVQLQESGGGLVQPGGSLRLTCVASGFPFSTHAMSWVRQPPGKGREWISAINSGGDSTDYADSVMGRFTISRDNAKNTVYLQMNSLKSEDTAAYYCAKYEDCSDYDCSSRASWGQGTQVTVSSAPELLGGPDVFLFPPKPKDTLMISRTPEVTCVVVDVSHEDPEVKFNWYVDGVEVHNAKTKPREEQYNSTYRVVSVLTVLHQDWLNGKEYKCKVSNKALPAPEEKTISKAKGQPREPQVYTLPPSRDELTKNQVSLTCLVKGFYPSDIAVEWESNGQPENNYKTTPPVLDSDGSFFLYSKLTVDKSRWQQGNVFSCSVMHEALHNHYTQKSLSLSPGK"
value_observed = 63.3

[[record]]
binder = "anti-IL-12Rβ2-VHH-FcDE clone 20438 (Fc fusion) QVQLQESGGGLVQPGGSLRLSCTASGFAFSTYWMYWIRQSPEKGFEWVSVVNTGGDITYYADSVKGRFTISRDNAKNTLYLQMNSLKPEDTALYYCARDRTTMSYTRTYYRGGQGTQVTVSSAPELLGGPDVFLFPPKPKDTLMISRTPEVTCVVVDVSHEDPEVKFNWYVDGVEVHNAKTKPREEQYNSTYRVVSVLTVLHQDWLNGKEYKCKVSNKALPAPEEKTISKAKGQPREPQVYTLPPSRDELTKNQVSLTCLVKGFYPSDIAVEWESNGQPENNYKTTPPVLDSDGSFFLYSKLTVDKSRWQQGNVFSCSVMHEALHNHYTQKSLSLSPGK"
value_observed = 49.5


For the binder anti-IL-12Rβ2-VHH-FcDE clone 21053 (Fc fusion) QVQLQESGGGLVQAGGSLRLSCAASGRTFSNYAMAWFRQAPGTEREFVAGLSGSGGDTEFYDDSVKGRFAISRDSAKNTVWLQMNSLKPEDTAVYYCAAATHVVVHYGLVRRRGTYDYWGQGTQVTVSSAPELLGGPDVFLFPPKPKDTLMISRTPEVTCVVVDVSHEDPEVKFNWYVDGVEVHNAKTKPREEQYNSTYRVVSVLTVLHQDWLNGKEYKCKVSNKALPAPEEKTISKAKGQPREPQVYTLPPSRDELTKNQVSLTCLVKGFYPSDIAVEWESNGQPENNYKTTPPVLDSDGSFFLYSKLTVDKSRWQQGNVFSCSVMHEALHNHYTQKSLSLSPGK , give its reported % Specific Cell Lysis at 0.00125 ug/mL. 46.5
